Molecular target: T1, HTRA4, P83105
T1 sequence (P83105 378-476, limits assumed, looked up): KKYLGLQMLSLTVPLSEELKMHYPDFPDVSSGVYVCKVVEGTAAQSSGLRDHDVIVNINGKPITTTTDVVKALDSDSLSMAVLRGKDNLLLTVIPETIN
Assay: holdup assay
Set-up: key: below the threshold = too weak to quantify, mostly under pKd 3.1 to 4
Conditions: plain residues with an end cap or a label only (N-terminal biotin on a linker: ahx)
quantity.kind: pKd

Worked cases, answers included:
binder | pKd
VNENQKEYFF [CNTNAP4, Q9C0A0] | below the threshold
ADENEQVSAV [RAPGEF6, Q8TEU7] | below the threshold
KDECVIATEV [DLL1, O00548] | 3.53
SKKNELFSNL [NHERF1, O14745] | below the threshold
KEYDDELTFF [USH1C, Q9Y6N9] | below the threshold

Task item: I would be grateful if you could share the reported pKd for SAPATLSSRA [PDLIM2, Q96JY6] .
Reply: below the threshold

Task item: Let us now turn to PKMKLNETSF [SHKBP1, Q8TBC3]
Reply: below the threshold

Task item: Let us now turn to YNSFLSVTTV [PDZRN3, Q9UPQ7]
Reply: 4.2

Task item: Let us now turn to HSATSVHTSV [MTMR1, Q13613]
Reply: below the threshold

Task item: Let us now turn to AKPQPVDSWV [ARVCF, O00192]
Reply: below the threshold
